# testedSystem: HLA-A*31:01
# assayNotes: IEDB peptide-MHC binding, purified MHC/direct/fluorescence; filed as Kd, often an IC50 or EC50 that approximates it; bounds were set here for any values at or beyond the usual limits of such assays
# conditionLabel: source organism: Lassa virus Josiah
readoutName: Kd

Ask | Fill in reported Kd for this entry: `NHYLCLNCL`
Reply | ≥ 20 µM

----------
# testedSystem: HLA-A*31:01
# assayNotes: IEDB peptide-MHC binding, purified MHC/direct/fluorescence; filed as Kd, often an IC50 or EC50 that approximates it; bounds were set here for any values at or beyond the usual limits of such assays
# conditionLabel: source organism: Camelpox virus CMS
readoutName: Kd (nM)
Just the number please, in nM, no unit attached.

Ask | Fill in reported Kd for this entry: `RVFDKADGK`
Reply | 99.7

----------
# testedSystem: HLA-A*68:02
# assayNotes: IEDB peptide-MHC binding, purified MHC/direct/fluorescence; filed as Kd, often an IC50 or EC50 that approximates it; bounds were set here for any values at or beyond the usual limits of such assays
# conditionLabel: source organism: Burkholderia mallei
readoutName: Kd

Ask | Fill in reported Kd for this entry: `KLYPNVDFY`
Reply | ≥ 20 µM

----------
# testedSystem: HLA-A*31:01
# assayNotes: IEDB peptide-MHC binding, purified MHC/direct/fluorescence; filed as Kd, often an IC50 or EC50 that approximates it; bounds were set here for any values at or beyond the usual limits of such assays
# conditionLabel: source organism: Shigella flexneri
readoutName: Kd

Ask | Fill in reported Kd for this entry: `DRLHPPNKL`
Reply | ≥ 20 µM

----------
# testedSystem: HLA-B*40:01
# assayNotes: IEDB peptide-MHC binding, purified MHC/direct/fluorescence; filed as Kd, often an IC50 or EC50 that approximates it; bounds were set here for any values at or beyond the usual limits of such assays
# conditionLabel: source organism: Cryptosporidium parvum
pKd: −log10 of the molar value.
readoutName: pKd

Ask | Fill in reported pKd for this entry: `KHNSAESAK`
Reply | ≤ 4.70

----------
# testedSystem: HLA-A*02:11
# assayNotes: IEDB peptide-MHC binding, purified MHC/direct/fluorescence; filed as Kd, often an IC50 or EC50 that approximates it; bounds were set here for any values at or beyond the usual limits of such assays
# conditionLabel: source organism: Salmonella enterica subsp. arizonae serovar 62:z4,z23:-
readoutName: pKd
Please keep in mind that pKd is minus log10 of the molar concentration; only the number is needed.

Ask | Param request: pKd | system HLA-A*02:11 | item `RIYSHIAPY`
Reply | 6.90

----------
# testedSystem: HLA-A*30:01
# assayNotes: IEDB peptide-MHC binding, purified MHC/competitive/radioactivity; filed as Kd, often an IC50 or EC50 that approximates it; bounds were set here for any values at or beyond the usual limits of such assays
# conditionLabel: source organism: Dengue virus 1 Brazil/97-11/1997
pKd overview
Please keep in mind that pKd is minus log10 of the molar concentration; only the number is needed.

KVVRVQRPA: 7.21

Ask | Param request: pKd | system HLA-A*30:01 | item `RLKRMAISG`
Reply | 6.86

Ask | Param request: pKd | system HLA-A*30:01 | item `RARNRVSTG`
Reply | 6.74

Ask | Param request: pKd | system HLA-A*30:01 | item `VMRSRWSRK`
Reply | 7.97

Ask | Param request: pKd | system HLA-A*30:01 | item `SQKTTWLPV`
Reply | 7.82

----------
# testedSystem: HLA-B*08:01
# assayNotes: IEDB peptide-MHC binding, purified MHC/direct/fluorescence; filed as Kd, often an IC50 or EC50 that approximates it; bounds were set here for any values at or beyond the usual limits of such assays
# conditionLabel: source organism: Vibrio vulnificus YJ016
pKd: −log10 of the molar value.
readoutName: pKd

Ask | Param request: pKd | system HLA-B*08:01 | item `DAYGFHNYK`
Reply | ≤ 4.70

----------
# testedSystem: HLA-A*01:01
# assayNotes: IEDB peptide-MHC binding, purified MHC/direct/fluorescence; filed as Kd, often an IC50 or EC50 that approximates it; bounds were set here for any values at or beyond the usual limits of such assays
# conditionLabel: source organism: Vibrio vulnificus YJ016
pKd: −log10 of the molar value.
readoutName: pKd

Ask | Fill in reported pKd for this entry: `DAYGFHNYK`
Reply | ≤ 4.70

----------
# testedSystem: HLA-A*33:01
# assayNotes: IEDB peptide-MHC binding, purified MHC/competitive/radioactivity; filed as Kd, often an IC50 or EC50 that approximates it; bounds were set here for any values at or beyond the usual limits of such assays
# conditionLabel: source organism: Lassa virus Josiah
readoutName: pKd
Please keep in mind that pKd is minus log10 of the molar concentration; only the number is needed.

Ask | Fill in reported pKd for this entry: `FCNLSDAHK`
Reply | 5.36

Ask | Fill in reported pKd for this entry: `TCQGSDDIR`
Reply | 4.92

----------
# testedSystem: HLA-B*07:02
# assayNotes: IEDB peptide-MHC binding, purified MHC/competitive/fluorescence; bounds were set here for any values at or beyond the usual limits of such assays
# conditionLabel: source organism: Vaccinia virus Copenhagen
pIC50: −log10 of the molar value.
readoutName: pIC50

Ask | Fill in reported pIC50 for this entry: `YANCSSISI`
Reply | ≤ 3.76

----------
# testedSystem: HLA-A*03:01
# assayNotes: IEDB peptide-MHC binding, purified MHC/direct/fluorescence; filed as Kd, often an IC50 or EC50 that approximates it; bounds were set here for any values at or beyond the usual limits of such assays
# conditionLabel: source organism: SARS-CoV1
readoutName: Kd
Remember to follow the number with its unit.

Ask | Param request: Kd | system HLA-A*03:01 | item `VQTVRTQVY`
Reply | 6.62 µM

----------
# testedSystem: HLA-A*68:02
# assayNotes: IEDB peptide-MHC binding, purified MHC/direct/fluorescence; filed as Kd, often an IC50 or EC50 that approximates it; bounds were set here for any values at or beyond the usual limits of such assays
# conditionLabel: source organism: Zaire ebolavirus
pKd: −log10 of the molar value.
readoutName: pKd

TTIGEWAFW: ≤ 4.70

Turning now to a further sequence:
Ask | Fill in reported pKd for this entry: `LSDAIFDDL`
Reply | ≤ 4.70

----------
pKd overview
# testedSystem: HLA-A*29:02
# assayNotes: IEDB peptide-MHC binding, purified MHC/competitive/radioactivity; filed as Kd, often an IC50 or EC50 that approximates it; bounds were set here for any values at or beyond the usual limits of such assays
# conditionLabel: source organism: SARS coronavirus Tor2
Please keep in mind that pKd is minus log10 of the molar concentration; only the number is needed.

Answered cases to consult:
TLDESFLGRY: 6.81
LTNSVIIMAY: 8.09

Ask | Fill in reported pKd for this entry: `LFVTIYSHL`
Reply | 5.85

Ask | Fill in reported pKd for this entry: `FYGGWHNML`
Reply | 4.81

Ask | Fill in reported pKd for this entry: `SMMGFKMNY`
Reply | 7.86

Ask | Fill in reported pKd for this entry: `NTNPIQLSSY`
Reply | 6.02

Ask | Fill in reported pKd for this entry: `EIDETCEHEY`
Reply | 6.18

Ask | Fill in reported pKd for this entry: `MADQAMTQMY`
Reply | 8.01

Ask | Fill in reported pKd for this entry: `VFFGYFASHF`
Reply | 9.58

Ask | Fill in reported pKd for this entry: `FNATKFPSVY`
Reply | 5.52

Ask | Fill in reported pKd for this entry: `GSVGFNIDY`
Reply | 6.75

----------
# testedSystem: HLA-B*58:01
# assayNotes: IEDB peptide-MHC binding, purified MHC/competitive/fluorescence; filed as Kd, often an IC50 or EC50 that approximates it; bounds were set here for any values at or beyond the usual limits of such assays
# conditionLabel: source organism: Salmonella enterica subsp. enterica serovar Typhi
readoutName: Kd
Remember to follow the number with its unit.

Ask | Fill in reported Kd for this entry: `ITDWLNFTL`
Reply | 123 nM

----------
# testedSystem: HLA-B*18:01
# assayNotes: IEDB peptide-MHC binding, purified MHC/direct/fluorescence; filed as Kd, often an IC50 or EC50 that approximates it; bounds were set here for any values at or beyond the usual limits of such assays
# conditionLabel: source organism: Mycobacterium tuberculosis
readoutName: Kd

Ask | Fill in reported Kd for this entry: `AVFPRYHPR`
Reply | ≥ 20 µM

----------
# testedSystem: HLA-A*02:01
# assayNotes: IEDB peptide-MHC binding, purified MHC/competitive/radioactivity; filed as Kd, often an IC50 or EC50 that approximates it; bounds were set here for any values at or beyond the usual limits of such assays
# conditionLabel: source organism: Homo sapiens
Kd overview

GSFGDIYLA: 232 nM

Ask | Fill in reported Kd for this entry: `DMKKKMEDSV`
Reply | 15000 nM
